PBM binding z-score for assorted sequences
Tested on: THRa homodimer (NR concentration 90 nM)
assay.details: PBM binding z-score (relative to random genomic background probes); higher = stronger binding; sequences stand for … in GC…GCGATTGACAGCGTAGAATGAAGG
Respond with the number and no other words.

Solved cases below.
{"seq.text": "AATACAGGGGCATCGTAGGCCAGAGTACGCACAG", "PBM binding z-score": -0.358}
{"seq.text": "TCTATTAGTTGGAGGGCAACCGACGAGTCCGTTT", "PBM binding z-score": 0.592}
{"seq.text": "CGTCCAAGGCCAGCAGGTCAGTGAAAGCGACGTG", "PBM binding z-score": 0.193}
{"seq.text": "ACTATTAGTTGAAACGAGGGCAACCGATAGGTTG", "PBM binding z-score": 0.358}
{"seq.text": "GCTAGCAGGCCGTTTGGGTCACTCAATGACGGGC", "PBM binding z-score": 0.166}

Q) Provide measured PBM binding z-score value, entry: ACTAGCAGGCCAAGGGTCATTCAAGATTAGTCCG
A) 0.107

Q) Provide measured PBM binding z-score value, entry: ACTATTAGTTGAGACGAGGACAACCGATAGGTTG
A) 2.56

Q) Provide measured PBM binding z-score value, entry: TCTCGGAGGACACGAAAGGTCAGATCTCGACATC
A) 1.45
